B1: EPB41L3 (parent)
chain: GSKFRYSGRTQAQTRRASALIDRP

variants of: B1; experiment: protein stability index of a GFP-peptide fusion (GPS, HEK-293T) (PSI 1-6); higher = more stable; details: c terminus: a fixed tail appended;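 also: lentivirally expressed fusions sorted by FACS into six bins by GFP to DsRed ratio, PSI derived from sequencing read proportions per bin multiplied by bin number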
Measured protein stability index, listed per entry for reference.
Reply: number alone, nothing else.

> print(dat)
             chain.sequence       attribute.measured  result
1  GSKFRYSGRTQAQTRRAGALIDRP  protein stability index    3.54
2  GVKFRYSGRTQAQTRRASALIDRP  protein stability index     2.5
3  GSKCRYSGRTQAQTRRASALIDRP  protein stability index     3.4
4  GSKFRYSGRTQAQTRRYSALIDRP  protein stability index    2.54
5  GRKFRYSGRTQAQTRRASALIDRP  protein stability index    2.51
6  GSKFRYSGVTQAQTRRASALIDRP  protein stability index    2.85

Ask: Form field: reported protein stability index of GSKFRYSGRTQAQTRIASALIDRP
Result: 2.72

Ask: Look up protein stability index: GDKFRYSGRTQAQTRRASALIDRP
Result: 4.02

Ask: Entry GSKFRYSGRTQAQHRRASALIDRP has what protein stability index?
Result: 2.77

Ask: What does the data say about its protein stability index? Entry: GSKFRYSDRTQAQTRRASALIDRP
Result: 3.02

Ask: Given GSKFRYSGRTQAQTRMASALIDRP , state its recorded protein stability index.
Result: 2.67

Ask: Could you tell me which protein stability index is on file for GSKFRYCGRTQAQTRRASALIDRP ?
Result: 2.1

Ask: Which protein stability index is listed for GSKFRYSGRCQAQTRRASALIDRP ?
Result: 1.97

Data credit: the supplement of paper PMC10567573
